Would you kindly list disease control grading, PH[…] (TOMATO) for each of these compounds?
- System: PH[…] (TOMATO)
- Assay type: in vivo, Phytophthora infestans
- assay conditions: 100 ppm foliar spray plus root drench ca. 40 ppm a.i./dry soil; 1-2 days before inoculation

So, `CO/C=C(/C(=O)OC)c1cccnc1Oc1cc(Cl)cc(Cl)c1` ? Its disease control grading, PH[…] (TOMATO) was 4

# disease control grading, PH[…] (TOMATO) (compound: `CO/C=C(/C(=O)OC)c1cccnc1Oc1cccc(Cl)c1` ) is 4

The compound listed as `CO/C=C(/C(=O)OC)c1cccnc1Oc1cc(F)cc(F)c1` has a reported disease control grading, PH[…] (TOMATO) of 4
